PROTOCOL: Inhibition of pig pancreatic lipase type 2 using p-nitrophenyl butyrate as substrate preincubated with enzyme for 10 mins followed by susbtrate addition and measured after 30 mins by spectrophotometric analysis
Set-up: species or system Sus scrofa
REPORTED PROPERTY: pIC50
Just the number, please; pIC50 means minus log10 of the concentration in mol/L.

Examples with their reported pIC50 follow.
O=c1c(-c2ccc(O)cc2)coc2cc(O)cc(O)c12 4.22
O=c1c(-c2cc(Br)c(O)c(Br)c2)coc2c(Br)c(O)ccc12 4.20
COc1ccc(-c2coc3c(Br)c(O)ccc3c2=O)cc1Br 4.00

Need pIC50 of "COc1ccc(-c2coc3cc(O)ccc3c2=O)cc1" , thanks.
3.92

Which pIC50 is listed for "Cc1cc(O)cc2occ(-c3ccc(O)c(O)c3)c(=O)c12" ?
4.04

Would you kindly share the measured pIC50 for "CCCCCCCCCCC[C@@H](C[C@@H]1OC(=O)[C@H]1CCCCCC)OC(=O)[C@H](CC(C)C)NC=O" ?
6.22

Requested field: pIC50. Item: "COc1ccc(-c2coc3c(O)c(O)ccc3c2=O)cc1"
4.03

Would you mind telling me what pIC50 value was observed for "O=c1c(-c2ccc(O)c(O)c2)coc2cc(O)ccc12" ?
4.15

Requested field: pIC50. Item: "O=c1c(-c2ccc(O)cc2)coc2cc(O)ccc12"
4.08

I have this compound here, "COc1ccc2c(=O)c(-c3ccc(OC)c(OC)c3)coc2c1" , and I need its recorded pIC50.
3.44

What value of pIC50 has been reported for the following compound? "CC(=O)Oc1ccc2c(=O)c(-c3ccc(OC(C)=O)c(OC(C)=O)c3)coc2c1"
3.91

Endpoint output: pIC50 of "COc1ccc(-c2coc3c(Br)c(O)ccc3c2=O)cc1" . Value?
4.06
